experimentNotes: in vitro
details: human, liver microsomes
For each of the molecules below, state its microsomal CLint.

Exam item: Would you kindly share the measured microsomal CLint for CS(=O)(=O)c1ccc(-c2cc(C(F)(F)F)ccc2OCC(=O)O)cc1 ?
Marked response: < 3 µL/min/mg

Exam item: So what does the record say about microsomal CLint for Cn1c(-c2ccccc2C(F)(F)F)nnc1C12CCC(c3noc(-c4ccc(F)cc4)n3)(CC1)CC2 ?
Marked response: < 3 µL/min/mg

Exam item: I'd like to know its microsomal CLint. The molecule in question is CCN(C(=O)NCc1ccc(S(C)(=O)=O)cc1)C1CCN(CCC(c2ccccc2)c2ccccc2)CC1
Marked response: < 3 µL/min/mg

Exam item: Fill in: microsomal CLint of COc1ccc(N(C(C)=O)C(C(=O)NC2CCCC2)c2ccccc2F)c(OC)c1 (stereo not given) is ___
Marked response: > 150 µL/min/mg

Exam item: Consider the molecule shown here: COc1ccc2c(c1)c(CC(=O)O)c(C)n2-c1ccnc2cc(Cl)ccc12 What is its recorded microsomal CLint?
Marked response: < 3 µL/min/mg

Exam item: Given the entry Nc1ccc(OCC(=O)O)c(-c2ccccc2)c1 , report its measured microsomal CLint.
Marked response: < 3 µL/min/mg

Exam item: Query (molecule): Cc1cc(-c2ccc(Cl)c(C(=O)NCC3(O)CCCCCC3)c2)nn1C[C@H](O)CN ; field requested: microsomal CLint
Marked response: < 3 µL/min/mg

Exam item: Which microsomal CLint is listed for O=C(NCC1(O)CCCCCC1)c1cc(-c2ccccc2C(=O)O)ccc1Cl ?
Marked response: < 3 µL/min/mg

Exam item: Please report the recorded microsomal CLint for Cc1c(OC2CCN(CC3CCN([C@@](C)(Cc4ccc(F)cc4)C(=O)O)CC3)CC2)ccc(Cl)c1Cl .
Marked response: < 3 µL/min/mg

Exam item: Can you share its microsomal CLint? I mean this molecule: O=C(c1cccc(Cl)c1Cl)N1CCN(c2ccccn2)CC1
Marked response: > 150 µL/min/mg

* * *

experimentNotes: physchem
details: pH 7.4 buffer
So I've got a bunch of molecules here, and I need their log10 solubility thermodynamic values.
Remember, log10 of solubility thermodynamic, in µM.

Exam item: What measured log10 solubility thermodynamic goes with O=C1NCNC1(c1ccccc1)c1ccccc1 ?
Marked response: 2.50

Exam item: Give the measured log10 solubility thermodynamic of Cc1cc(C)cc(-c2[nH]c3sc(C(C)(C)C(=O)N4C5CCC4CC5)cc3c2CCN2CCC(CC(=O)N3CCOCC3)CC2)c1 .
Marked response: 0.28

Exam item: Give its log10 solubility thermodynamic value. Item: CC(=O)n1c2ccccc2c2cc(NC(=O)CCc3ccncc3)ccc21
Marked response: 0.32

Exam item: Form field: reported log10 solubility thermodynamic of COc1cc2ncnc(Oc3cnn(CC(=O)Nc4ccc(N(C)C)cn4)c3)c2cc1OC
Marked response: 0.82

Exam item: Would you kindly share the measured log10 solubility thermodynamic for CS(=O)(=O)Nc1cccc(NC(=O)CN2CCN(C(=O)C[C@H](N)Cc3ccc(F)c(F)c3)[C@H](Cc3ccccc3)C2)c1 ?
Marked response: 2.82

Exam item: Dear colleague, I am looking for the recorded log10 solubility thermodynamic of the following molecule: CCN(C(=O)Cc1ccc(S(C)(=O)=O)cc1)C1CCN(CCC(c2ccccc2)c2ccc(NS(C)(=O)=O)cc2)CC1 (stereo unspecified)
Marked response: 2.24

Exam item: May I ask what log10 solubility thermodynamic has been recorded for CC(=O)Nc1nc(-c2ccc(Br)s2)cs1 ?
Marked response: 0.34

Exam item: What value of log10 solubility thermodynamic has been recorded for this entry: Cc1cccc(-c2nn3c(c2-c2ccnc4ccc(C(N)=O)cc24)CCC3)n1
Marked response: 2.26

Exam item: Sample CS(=O)(=O)c1cccc(Nc2nccc(Nc3cccc4c3OCO4)n2)c1 — what was its log10 solubility thermodynamic?
Marked response: 0.77

Exam item: Reported log10 solubility thermodynamic, molecule CNC(=O)c1cc(COc2nnc(Nc3ccc(Cl)cc3)c3ccoc23)ccn1 : ____
Marked response: -0.52

Exam item: Would you mind telling me what log10 solubility thermodynamic value was observed for Cn1sc(NCc2ccccc2)nc1=O ?
Marked response: 3.18

Exam item: What log10 solubility thermodynamic value was documented for this molecule, O=C(Nc1ccc(N2CCOCC2)cc1)c1nnc(NC(=O)C2(c3ccc(Cl)cc3)CCCC2)o1 ?
Marked response: 0.94

Exam item: Query (molecule): Cc1ccc(CNC(=O)C2CCCN2S(=O)(=O)c2ccc(F)cc2)cc1 (stereo unspecified) ; field requested: log10 solubility thermodynamic
Marked response: 0.95

Exam item: Would you kindly share the measured log10 solubility thermodynamic for Cc1nc(C)c(-c2ccc([C@H]3CC[C@H](CCC(=O)O)CC3)cc2)nc1C(N)=O ?
Marked response: 2.30

Exam item: Item c1ccc(NCc2ccc(CNc3ccccn3)cc2)nc1 has what recorded log10 solubility thermodynamic?
Marked response: -0.05

Exam item: I would be grateful if you could share the reported log10 solubility thermodynamic for CN(C(=O)Cc1ccc(-n2cnnn2)cc1)[C@@H]1CCN(Cc2ccc(C(F)(F)F)cc2)C[C@@H]1F .
Marked response: 1.21

Exam item: Given CCC[C@@H]1O[C@@H]2C[C@H]3[C@@H]4CCC5=CC(=O)C=C[C@]5(C)[C@H]4[C@@H](O)C[C@]3(C)[C@]2(C(=O)CO)O1 [DEXBUDESONIDE] , state its recorded log10 solubility thermodynamic.
Marked response: 1.29

Exam item: Reported log10 solubility thermodynamic for Cc1cn(-c2cc(NC(=O)c3ccc(C)c(Nc4nccc(-c5cccnc5)n4)c3)cc(C(F)(F)F)c2)cn1 : what is it?
Marked response: 0.04

Exam item: Give its log10 solubility thermodynamic value. Item: O=C(c1ccc(Cl)cc1)C1CCN(C(=O)C2CC2)CC1
Marked response: 2.28

Exam item: log10 solubility thermodynamic for c1ccc(-c2cnn3cc(-c4ccncc4)cnc23)cc1 ?
Marked response: -0.05

Exam item: Value lookup for log10 solubility thermodynamic; key = CC(=O)Nc1cc(CN2C(=O)N(c3ccc(SC(F)(F)F)cc3)C(=O)C2(C)C)ccn1
Marked response: 1.12

Origin of measurements: ChEMBL document CHEMBL3301361
